The reported numbers originate from the supplement of paper PMC10567573.

B1: BRF1 (parent)
chain: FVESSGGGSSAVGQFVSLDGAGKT

- Variants of: B1
- Assay Text: protein stability index of a GFP-peptide fusion (GPS, HEK-293T) (PSI 1-6); higher = more stable;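 note: lentivirally expressed fusions sorted by FACS into six bins by GFP to DsRed ratio, PSI derived from sequencing read proportions per bin multiplied by bin number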
- Assay Setup: c terminus: a fixed tail appended
Measured Attribute: protein stability index

Worked set:
Mutation List | Measured Attribute | Reported Value
A11V | protein stability index | 2.4
A21L | protein stability index | 1.8
G13M | protein stability index | 1.66
A21V | protein stability index | 1.92
A21Q | protein stability index | 2.03
T24H | protein stability index | 1.79

Consider the following items and state reported protein stability index for each.
1. A21S
2. G22L
3. S9Q

A.
[2.15, 1.6, 2.22]

Consider the following items and state reported protein stability index for each.
1. T24L
2. V16L
3. S4D
4. V2T
5. G20W

A.
[2.02, 2.36, 2.49, 4.76, 2.34]

Consider the following items and state reported protein stability index for each.
1. S17A
2. S4I
3. S4V
4. G8N

A.
1. 3.26
2. 1.86
3. 2.54
4. 2.12

Consider the following items and state reported protein stability index for each.
1. S17D
2. Q14L
3. S10P
4. G20H

A.
[2.39, 1.04, 2.57, 2.55]
